Target desc: UniProt:Q9NYV4
Sequence (Q9NYV4 whole entry): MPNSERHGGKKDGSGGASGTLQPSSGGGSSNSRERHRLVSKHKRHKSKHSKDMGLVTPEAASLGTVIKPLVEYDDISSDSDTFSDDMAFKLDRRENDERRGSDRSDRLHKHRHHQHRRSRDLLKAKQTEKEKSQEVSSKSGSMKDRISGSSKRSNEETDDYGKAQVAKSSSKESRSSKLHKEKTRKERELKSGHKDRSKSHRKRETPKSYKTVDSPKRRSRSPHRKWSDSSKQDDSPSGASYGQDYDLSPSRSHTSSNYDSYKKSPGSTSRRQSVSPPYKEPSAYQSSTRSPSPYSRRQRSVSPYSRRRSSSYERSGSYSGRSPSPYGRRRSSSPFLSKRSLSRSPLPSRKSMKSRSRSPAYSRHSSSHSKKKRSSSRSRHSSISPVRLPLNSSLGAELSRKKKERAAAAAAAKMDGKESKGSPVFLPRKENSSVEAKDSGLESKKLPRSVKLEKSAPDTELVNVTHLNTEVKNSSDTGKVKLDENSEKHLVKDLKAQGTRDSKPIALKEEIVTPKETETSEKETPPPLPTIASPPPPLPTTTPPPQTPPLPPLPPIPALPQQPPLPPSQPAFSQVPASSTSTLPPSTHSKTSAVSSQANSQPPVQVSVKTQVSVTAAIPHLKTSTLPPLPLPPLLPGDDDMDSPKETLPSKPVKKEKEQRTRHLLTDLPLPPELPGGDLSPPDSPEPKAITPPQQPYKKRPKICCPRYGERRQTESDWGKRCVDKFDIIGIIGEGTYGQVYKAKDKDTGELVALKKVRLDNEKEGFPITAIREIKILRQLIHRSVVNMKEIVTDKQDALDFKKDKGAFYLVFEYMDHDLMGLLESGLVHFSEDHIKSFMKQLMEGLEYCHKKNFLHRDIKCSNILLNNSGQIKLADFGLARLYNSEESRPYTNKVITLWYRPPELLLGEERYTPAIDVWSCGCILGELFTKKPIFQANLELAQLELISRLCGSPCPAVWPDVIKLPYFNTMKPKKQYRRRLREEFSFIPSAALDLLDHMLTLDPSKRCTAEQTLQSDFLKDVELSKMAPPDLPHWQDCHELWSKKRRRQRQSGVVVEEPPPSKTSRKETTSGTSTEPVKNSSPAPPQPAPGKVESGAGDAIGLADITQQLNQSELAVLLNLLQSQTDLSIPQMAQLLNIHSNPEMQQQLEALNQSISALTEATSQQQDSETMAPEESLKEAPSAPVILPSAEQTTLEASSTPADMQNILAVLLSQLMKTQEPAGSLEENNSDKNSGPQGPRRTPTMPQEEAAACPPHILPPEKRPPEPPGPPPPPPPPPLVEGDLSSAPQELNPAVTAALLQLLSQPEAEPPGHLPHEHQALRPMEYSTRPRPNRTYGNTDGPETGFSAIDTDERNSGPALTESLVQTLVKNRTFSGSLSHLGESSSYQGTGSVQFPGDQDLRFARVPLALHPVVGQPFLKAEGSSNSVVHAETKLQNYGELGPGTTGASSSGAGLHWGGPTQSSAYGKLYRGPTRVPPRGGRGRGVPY
Sequence (O75909 whole entry partner): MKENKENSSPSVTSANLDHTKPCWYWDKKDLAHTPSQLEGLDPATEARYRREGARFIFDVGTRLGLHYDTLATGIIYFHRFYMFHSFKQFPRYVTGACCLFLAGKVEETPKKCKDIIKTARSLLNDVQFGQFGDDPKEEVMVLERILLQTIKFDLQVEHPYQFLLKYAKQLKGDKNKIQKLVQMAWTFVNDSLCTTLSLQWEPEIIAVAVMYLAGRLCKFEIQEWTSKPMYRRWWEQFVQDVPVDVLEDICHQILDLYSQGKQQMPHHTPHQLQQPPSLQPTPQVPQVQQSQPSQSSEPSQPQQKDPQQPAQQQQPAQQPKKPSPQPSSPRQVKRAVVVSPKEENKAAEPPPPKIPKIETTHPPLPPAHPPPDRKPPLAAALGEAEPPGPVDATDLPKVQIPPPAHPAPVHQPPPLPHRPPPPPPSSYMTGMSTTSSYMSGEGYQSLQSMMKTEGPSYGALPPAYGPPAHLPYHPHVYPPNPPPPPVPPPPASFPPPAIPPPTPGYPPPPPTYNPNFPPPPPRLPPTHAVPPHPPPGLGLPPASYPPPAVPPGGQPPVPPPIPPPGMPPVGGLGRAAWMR
Assay method text: Biochemical assay for CDK12 (LANCE TR-FRET, IC50 determination)
Settings: CDK12, IC50 class; read-out: IC50 μM (in range)
Each entry below lists one item and its recorded IC50 value.

>  <Molecule>
CNC(=O)C(C)Oc1cc(NC(=O)Cc2ccc(C3CCCN(C#N)C3)nc2)ncc1Cl (single isomer, unassigned) [Compound 90]

>  <IC50>
0.01 to 0.1 µM

$$$$
>  <Molecule>
COc1cc(NC(=O)Cc2cnc(C3=CCCN(C#N)C3)c(OC)c2)ncc1Cl

>  <IC50>
< 0.01 µM

$$$$
>  <Molecule>
COc1cc(NC(=O)Cc2ccc(-c3ccc(C#N)cc3)nc2)ncc1Cl

>  <IC50>
> 0.1 µM

$$$$
>  <Molecule>
CN1CCC(Oc2cc(NC(=O)Cc3ccc(C4=CCN(C#N)CC4)nc3)ncc2Cl)C1 (stereo in doubt) [Compound 30]

>  <IC50>
0.01 to 0.1 µM

$$$$
